molecular target: Recombinant N-terminal GST tag full-length human HDAC8 (Homo sapiens, UniProt Q9BY41); construct: Recombinant N-terminal GST tag full-length human HDAC8; purchased SignalChem H90-30G-1000; host or cells: baculovirus in Sf9 insect cells; assay: HDAC8 probe binding assay, time resolved fluorescence (TRF) format; conditions: compounds grouped by IC50 range (Table 2)
Sequence (Q9BY41 whole entry): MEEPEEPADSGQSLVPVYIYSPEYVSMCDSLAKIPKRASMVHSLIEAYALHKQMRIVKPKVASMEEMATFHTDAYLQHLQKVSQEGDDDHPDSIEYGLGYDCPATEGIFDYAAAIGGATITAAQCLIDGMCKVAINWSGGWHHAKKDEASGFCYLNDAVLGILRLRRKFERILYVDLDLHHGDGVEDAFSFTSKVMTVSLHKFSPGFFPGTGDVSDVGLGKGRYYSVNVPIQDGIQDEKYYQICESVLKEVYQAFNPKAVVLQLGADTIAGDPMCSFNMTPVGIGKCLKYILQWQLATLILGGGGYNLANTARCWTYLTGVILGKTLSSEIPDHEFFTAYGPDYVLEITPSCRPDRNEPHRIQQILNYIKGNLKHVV

| MOLECULE | IC50 |
| --- | --- |
| O=C(NO)c1ccc2c(c1)N(Cc1nc3cccnc3s1)C(=O)CO2 | ≤ 25 nM |
| O=C(NO)c1ccc2c(c1)N(Cc1ncc(-c3ccccc3)o1)C(=O)CO2 | ≤ 25 nM |
| O=C(NO)c1ccc2c(c1)N(CC1CCCCC1)C(=O)CO2 | 25 to 100 nM |
| O=C(NO)c1ccc2c(c1)N(CC1CCN(c3ccccc3)CC1)C(=O)CO2 | 25 to 100 nM |
| CC(c1ccc(S(C)(=O)=O)cc1)N1C(=O)COc2ccc(C(=O)NO)cc21 (centres unmarked) | ≤ 25 nM |
| Cc1ccc(CN2C(=O)COc3ccc(C(=O)NO)cc32)c(C)c1 | ≤ 25 nM |
| O=C(NO)c1ccc2c(c1)N(Cc1nc3ccc(C(F)(F)F)nc3s1)C(=O)CO2 | 25 to 100 nM |
| O=C(NO)c1ccc2c(c1)N(Cc1cccc3ccccc13)C(=O)CO2 | 25 to 100 nM |
| O=C(NO)c1ccc2c(c1)N(Cc1ccc(-n3ccnc3)cc1)C(=O)CO2 | ≤ 25 nM |
| O=C(NO)c1ccc2c(c1)N(Cc1cc(-c3ccccc3)[nH]n1)C(=O)CO2 | ≤ 25 nM |
| CC(C)NC(=O)c1ccc(CN2C(=O)COc3ccc(C(=O)NO)cc32)cc1 | 25 to 100 nM |
| O=C(NO)c1ccc2c(c1)N(Cc1ccc(F)cc1Cl)C(=O)CO2 | ≤ 25 nM |
| O=C(NO)c1ccc2c(c1)N(Cc1ccc(-c3ncco3)cc1)C(=O)CO2 | ≤ 25 nM |
| O=C(NO)c1ccc2c(c1)N(Cc1nc3ccccc3s1)C(=O)CO2 | ≤ 25 nM |
| O=C(NO)c1ccc2c(c1)N(CC1CCC1)C(=O)CO2 | 25 to 100 nM |
| COc1ccc(CN2C(=O)C3(CCC3)Oc3ccc(C(=O)NO)cc32)cc1 | 25 to 100 nM |
| O=C(NO)c1ccc2c(c1)N(Cc1csc(-c3ccccc3)n1)C(=O)CO2 | 25 to 100 nM |
| O=C(NO)c1ccc2c(c1)N(Cc1cc(F)cc(Cl)c1)C(=O)CO2 | ≤ 25 nM |
| O=C(NO)c1ccc2c(c1)N(Cc1ccc3ccncc3c1)C(=O)CO2 | ≤ 25 nM |
| Cc1cccc(CN2C(=O)COc3ccc(C(=O)NO)cc32)c1F | ≤ 25 nM |
| O=C(NO)c1ccc2c(c1)N(Cc1ccc(C(=O)N3CCOCC3)cc1)C(=O)CO2 | 25 to 100 nM |
| O=C(NO)c1ccc2c(c1)N(Cc1ccc(Cl)c(F)c1)C(=O)CO2 | ≤ 25 nM |
| O=C(NO)c1ccc2c(c1)N(Cc1ccc3nonc3c1)C(=O)CO2 | 25 to 100 nM |
| O=C(NO)c1ccc2c(c1)N(Cc1ccc(Cl)cc1F)C(=O)CO2 | ≤ 25 nM |
| O=C(NO)c1ccc2c(c1)N(Cc1nc3ccc(C(F)(F)F)cc3o1)C(=O)CO2 | ≤ 25 nM |
| CC(C)CCN1C(=O)COc2ccc(C(=O)NO)cc21 | 25 to 100 nM |
| O=C(NO)c1ccc2c(c1)N(Cc1nc3cc(Cl)cnc3s1)C(=O)CO2 | ≤ 25 nM |
| CC1(C)Oc2ccc(C(=O)NO)cc2N(Cc2ccccc2OC(F)(F)F)C1=O | 25 to 100 nM |
| O=C(NO)c1ccc2c(c1)N(Cc1ccn3nccc3c1)C(=O)CO2 | ≤ 25 nM |
| Cn1cc2ccc(CN3C(=O)COc4ccc(C(=O)NO)cc43)cc2n1 | ≤ 25 nM |
| COc1ccc2oc(CN3C(=O)COc4ccc(C(=O)NO)cc43)nc2c1 | ≤ 25 nM |
| O=C(NO)c1ccc2c(c1)N(Cc1coc(-c3ccccc3)n1)C(=O)CO2 | ≤ 25 nM |
| Cn1cc2cc(CN3C(=O)COc4ccc(C(=O)NO)cc43)ccc2n1 | ≤ 25 nM |
| CC1(C)Oc2ccc(C(=O)NO)cc2N(CCCc2ccccc2)C1=O | 25 to 100 nM |
| O=C(NO)c1ccc2c(c1)N(Cc1nc3ccc(F)cc3o1)C(=O)CO2 | ≤ 25 nM |
